Catalogue of viability values
Method Description: reversal of MRP1-mediated doxorubicin resistance, pilot screen, H69AR cells, doxorubicin co-treatment (AID 601)
Run Conditions: H69AR cells + 2 uM doxorubicin, CellTiter-Glo, 72 h; measured here: viability with 2 uM doxorubicin; at 10 µM; stronger effect = lower value
Parameter Measured: viability

>>> df
                                    compound  parameter_measured    val
 0  CC(=O)Nc1ccc(Oc2cc(C#N)c(C#N)cc2N2CCCCCC2)cc1           viability  67.8%
 1  CCCN(S(=O)(=O)c1ccc(OCC)cc1)S(=O)(=O)c1cccs1           viability    84%
 2  Cc1ccccc1-n1nnnc1SCC(=O)Nc1ccc(S(=O)(=O)N2CCCC2)cc1           viability    88%
 3  CC(C)(C)n1nnnc1CN1CCC(NC(=O)NC2CCCCC2)CC1           viability  91.3%
 4  COc1cc2c(cc1OC)C(C)N(C(=O)c1cc3n(n1)C(C(F)(F)F)CC(c1ccco1)N3)CC2 (stereo unspecified)           viability  89.3%
 5  O=C(NCC1COc2ccccc2O1)c1ccccc1 (stereo unspecified)           viability  90.4%
 6        O=c1[nH]cnc2c1C1(CCCC1)Cc1ccccc1-2           viability  88.7%
 7   O=C(CSc1nnnn1-c1ccc2c(c1)OCO2)NCc1cccs1           viability  93.8%
 8  CC1(C)Cc2c(c(N3CCOCC3)nc3sc(C#N)c(N)c23)CS1           viability  84.5%
 9  O=C(CN1CCCN(S(=O)(=O)c2ccc(Br)cc2)CC1)Nc1ccc2cn[nH]c2c1           viability  20.5%
10  O=C(CN1CCCCCC1)OCCN=C1NS(=O)(=O)c2ccccc21           viability  89.8%
